experimentalTarget: Na^+,K^+ -ATPase receptor (Homo sapiens)
Construct: Na^+,K^+ -ATPase receptor purified according to Jorghensen; from tissue
assayRemarks: displacement of the specific ^3 H-ouabain binding from the Na^+,K^+ -ATPase receptor
measurementName: log10 of IC50 (log10 of the value in nM)
Note: values are log10 of IC50 expressed in nM.

Would you please look over these solved cases?
1. C[C@]12CC[C@H](SCCCN3CCCC3)C[C@H]1CC[C@@H]1[C@@H]2CC[C@]2(C)[C@@H](C3=CC(=O)OC3)CC[C@]12O [Comp. I-q] | 2.20
2. C[C@]12CC[C@H](O)C[C@H]1CC[C@@H]1[C@@H]2CC[C@]2(C)[C@@H]([C@@H]3COC(=O)C3)CC[C@]12O [DIGI 20(R), dihydrodigitoxigenin 20(R), reference compound] | 3.40
3. C[C@]12CC[C@H](O)C[C@H]1CC[C@@H]1[C@@H]2CC[C@]2(C)[C@@H](C3=CC(=O)OC3)CC[C@]12O [DIGI, digitoxigenin] | 2.50
4. C[C@]12CC[C@H](OCCC(=N)N)C[C@H]1CC[C@@H]1[C@@H]2CC[C@]2(C)[C@@H](C3=CC(=O)OC3)CC[C@]12O [Comp. I-f] | 2.20
5. C[C@]12CC[C@H](O)C[C@H]1CC[C@@H]1[C@@H]2CC[C@]2(C)[C@@H]([C@H]3COC(=O)C3)CC[C@]12O [DIGI 20(S), dihydrodigitoxigenin 20(S), reference compound] | 3.20

Field log10 of IC50 (system: Na^+,K^+ -ATPase receptor (Homo sapiens)) for entry CN(C)CCCO[C@H]1CC[C@@]2(C)[C@H](CC[C@@H]3[C@@H]2CC[C@]2(C)[C@@H](C4=CC(=O)OC4)CC[C@]32O)C1 [Comp. I-b] = 2.30

* * *

Test system: spontaneous hypertensive rats (MHS)
assayRemarks: systolic blood pressure and heart rate in hypertensive MHS rats (indirect tail-cuff)
Assay type: in vivo, rat (MHS)
testParameters: 20 mg/Kg/os daily for ten days in Methocel 0.5% w/v, 7 MHS rats; controls 384 +/- 11.0
Experimental: The ability of these compounds to lower blood pressure in adult hypertensive MHS rats was tested by the following method: systolic blood pressure (SBP) and heart rate (HR) were measured by an indirect tail-cuff method in three-month old hypertensive MHS rats before beginning treatment (basal values). […] SBP and HR were measured daily 6 and 24 hours after the treatment. […]
Attribute: HR (heart rate)

Would you please look over these solved cases?
1) C[C@]12CC[C@H](SCC(O)CO)C[C@H]1CC[C@@H]1[C@@H]2CC[C@]2(C)[C@@H](C3=CC(=O)OC3)CC[C@]12O (stereo partly drawn) [Comp. I-s] | 394 +/- 6.3 beats/min.
2) C[C@]12CC[C@H](OCCCN)C[C@H]1CC[C@@H]1[C@@H]2CC[C@]2(C)[C@@H](C3=CC(=O)OC3)CC[C@]12O [Comp. I-d] | 388 +/- 12.0 beats/min.

API: the following record is the query input.
Measured HR (heart rate), C[C@]12CC[C@H](SCCCN)C[C@H]1CC[C@@H]1[C@@H]2CC[C@]2(C)[C@@H](C3=CC(=O)OC3)CC[C@]12O [Comp. I-k] : 385 +/- 11.0 beats/min.

* * *

experimentalTarget: Na^+,K^+ -ATPase receptor (Homo sapiens)
Construct: Na^+,K^+ -ATPase receptor purified according to Jorghensen; from tissue
assayRemarks: displacement of the specific ^3 H-ouabain binding from the Na^+,K^+ -ATPase receptor
From the text: To test the affinity for the receptor site of the Na^+,K^+ -ATPase and the agonist or inhibitory activity on the enzyme, the following tests were used: a) displacement of the specific ^3 H-ouabain binding from the Na^+,K^+ -ATPase receptor purified according to Jorghensen (Jorghensen P., BBA, 1974,356, 36) and Erdmann (Erdmann E. et al., Arzneim. […]
measurementName: IC50
# include the unit after the value

1) C[C@]12CC[C@H](SCCCN)C[C@H]1CC[C@@H]1[C@@H]2CC[C@]2(C)[C@@H](C3=CC(=O)OC3)CC[C@]12O | 79.4 nM
2) C[C@]12CC[C@H](OCCN3CCCC3)C[C@H]1CC[C@@H]1[C@@H]2CC[C@]2(C)[C@@H](C3=CC(=O)OC3)CC[C@]12O | 63.1 nM
3) CN(C)CCOCCO[C@H]1CC[C@@]2(C)[C@H](CC[C@@H]3[C@@H]2CC[C@]2(C)[C@@H](C4=CC(=O)OC4)CC[C@]32O)C1 | 100 nM
4) C[C@]12CC[C@H](SCCCN3CCNCC3)C[C@H]1CC[C@@H]1[C@@H]2CC[C@]2(C)[C@@H](C3=CC(=O)OC3)CC[C@]12O | 316 nM
5) C[C@]12CC[C@H](SCC3CO3)C[C@H]1CC[C@@H]1[C@@H]2CC[C@]2(C)[C@@H](C3=CC(=O)OC3)CC[C@]12O (stereo partly drawn) | 63.1 nM
6) C[C@]12CC[C@H](OCC[N+](C)(C)C)C[C@H]1CC[C@@H]1[C@@H]2CC[C@]2(C)[C@@H](C3=CC(=O)OC3)CC[C@]12O | 251 nM

Field IC50 (system: Na^+,K^+ -ATPase receptor (Homo sapiens)) for entry C[C@]12CC[C@H](SCC(O)CO)C[C@H]1CC[C@@H]1[C@@H]2CC[C@]2(C)[C@@H](C3=CC(=O)OC3)CC[C@]12O (stereo partly drawn) = 79.4 nM

Field IC50 (system: Na^+,K^+ -ATPase receptor (Homo sapiens)) for entry C[C@]12CC[C@H](OCCCN)C[C@H]1CC[C@@H]1[C@@H]2CC[C@]2(C)[C@@H](C3=CC(=O)OC3)CC[C@]12O = 126 nM

Field IC50 (system: Na^+,K^+ -ATPase receptor (Homo sapiens)) for entry C[C@]12CC[C@H](SCC(O)CN)C[C@H]1CC[C@@H]1[C@@H]2CC[C@]2(C)[C@@H](C3=CC(=O)OC3)CC[C@]12O (stereo partly drawn) = 50.1 nM

Field IC50 (system: Na^+,K^+ -ATPase receptor (Homo sapiens)) for entry C[C@]12CC[C@H](SCCN)C[C@H]1CC[C@@H]1[C@@H]2CC[C@]2(C)[C@@H](C3=CC(=O)OC3)CC[C@]12O = 100 nM

Field IC50 (system: Na^+,K^+ -ATPase receptor (Homo sapiens)) for entry C[C@]12CC[C@H](SCC[N+](C)(C)C)C[C@H]1CC[C@@H]1[C@@H]2CC[C@]2(C)[C@@H](C3=CC(=O)OC3)CC[C@]12O = 100 nM

Field IC50 (system: Na^+,K^+ -ATPase receptor (Homo sapiens)) for entry C[C@]12CC[C@H](SCCN3CCCC3)C[C@H]1CC[C@@H]1[C@@H]2CC[C@]2(C)[C@@H](C3=CC(=O)OC3)CC[C@]12O = 200 nM

* * *

Attribute: log10 of IC50
experimentalTarget: purified Na^+,K^+ -ATPase (Homo sapiens)
Construct: Na^+,K^+ -ATPase receptor purified according to Jorghensen; from tissue
assayRemarks: inhibition of the activity of the purified Na^+,K^+ -ATPase (hydrolysis of ^32 P-ATP)
Type: biochemical
Note: values are log10 of IC50 expressed in nM.

Would you please look over these solved cases?
1. C[C@]12CC[C@H](SCC(O)CN)C[C@H]1CC[C@@H]1[C@@H]2CC[C@]2(C)[C@@H](C3=CC(=O)OC3)CC[C@]12O (stereo partly drawn) [Comp. I-u] | 2.40
2. CN(C)CCOCCO[C@H]1CC[C@@]2(C)[C@H](CC[C@@H]3[C@@H]2CC[C@]2(C)[C@@H](C4=CC(=O)OC4)CC[C@]32O)C1 [Comp. I-e] | 3.00
3. C[C@]12CC[C@H](SCCCN)C[C@H]1CC[C@@H]1[C@@H]2CC[C@]2(C)[C@@H](C3=CC(=O)OC3)CC[C@]12O [Comp. I-k] | 2.70
4. C[C@]12CC[C@H](OCC[N+](C)(C)C)C[C@H]1CC[C@@H]1[C@@H]2CC[C@]2(C)[C@@H](C3=CC(=O)OC3)CC[C@]12O [Comp. I-c] | 2.70
5. C[C@]12CC[C@H](SCCN)C[C@H]1CC[C@@H]1[C@@H]2CC[C@]2(C)[C@@H](C3=CC(=O)OC3)CC[C@]12O [Comp. I-i] | 2.80

Measured log10 of IC50, C[C@]12CC[C@H](O)C[C@H]1CC[C@@H]1[C@@H]2CC[C@]2(C)[C@@H](C3=CC(=O)OC3)CC[C@]12O [DIGI, digitoxigenin] : 2.50

Measured log10 of IC50, C[C@]12CC[C@H](OCCCN)C[C@H]1CC[C@@H]1[C@@H]2CC[C@]2(C)[C@@H](C3=CC(=O)OC3)CC[C@]12O [Comp. I-d] : 2.80

Measured log10 of IC50, C[C@]12CC[C@H](OCCC(=N)N)C[C@H]1CC[C@@H]1[C@@H]2CC[C@]2(C)[C@@H](C3=CC(=O)OC3)CC[C@]12O [Comp. I-f] : 3.20

Measured log10 of IC50, C[C@]12CC[C@H](SCCCN3CCNCC3)C[C@H]1CC[C@@H]1[C@@H]2CC[C@]2(C)[C@@H](C3=CC(=O)OC3)CC[C@]12O [Comp. I-r] : 2.80

Measured log10 of IC50, C[C@]12CC[C@H](SCC3CO3)C[C@H]1CC[C@@H]1[C@@H]2CC[C@]2(C)[C@@H](C3=CC(=O)OC3)CC[C@]12O (stereo partly drawn) [Comp. I-h] : 2.80

Measured log10 of IC50, C[C@]12CC[C@H](O)C[C@H]1CC[C@@H]1[C@@H]2CC[C@]2(C)[C@@H]([C@@H]3COC(=O)C3)CC[C@]12O [DIGI 20(R), dihydrodigitoxigenin 20(R), reference compound] : 3.90

Measured log10 of IC50, C[C@]12CC[C@H](SCC[N+](C)(C)C)C[C@H]1CC[C@@H]1[C@@H]2CC[C@]2(C)[C@@H](C3=CC(=O)OC3)CC[C@]12O [Comp. I-p] : 2.90
